B1: TPR t1 (parent)
chain: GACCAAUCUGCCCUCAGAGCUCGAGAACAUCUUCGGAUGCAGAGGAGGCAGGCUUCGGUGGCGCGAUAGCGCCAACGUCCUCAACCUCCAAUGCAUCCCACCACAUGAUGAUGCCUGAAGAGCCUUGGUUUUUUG

Variants of: B1
Assay: polymerase ribozyme fitness, log enrichment relative to wild type (log ratio); higher = more active; in vitro selection for triplet polymerase activity
Measured parameter: polymerase ribozyme fitness (log ratio)

Below, 8 variants whose answers are already recorded.
Mutation label: C73U C85U
polymerase ribozyme fitness (log ratio): -0.444
//
Mutation label: G77A U112G
polymerase ribozyme fitness (log ratio): 0.316
//
Mutation label: G36U C53A C89G
polymerase ribozyme fitness (log ratio): -2.84
//
Mutation label: G35A C102U
polymerase ribozyme fitness (log ratio): -5.08
//
Mutation label: C72A C85A A121C
polymerase ribozyme fitness (log ratio): 1.56
//
Mutation label: A26G G47A C49G G71U
polymerase ribozyme fitness (log ratio): -4.24
//
Mutation label: G19U U96G C114A
polymerase ribozyme fitness (log ratio): 1.12
//
Mutation label: A26U U54A G110A
polymerase ribozyme fitness (log ratio): -5.04

In plain terms, C40A G71U has a documented polymerase ribozyme fitness (log ratio) of -1.52

In plain terms, C53A C62G A108G has a documented polymerase ribozyme fitness (log ratio) of -3.91
